Test system: U373 glioblastoma cells
Assay: MTT colorimetric assay, overall cell growth, U373
Type: cell-based, human
Settings: 72 hours of incubation, read-out: In Vitro IC50 Growth Inhibitory Values, U373
METRIC: pIC50
Note: pIC50 values are expressed as the negative base-10 logarithm of concentration in M.

Before answering, review these 5 worked examples.
{"columns": ["MOLECULE", "ENDPOINT_VALUE"],
 "data": [
  ["O=C(O[C@@H]1CCCC[C@H]1OC(=O)c1ccc(O)c(Cl)c1)c1ccc(O)c(Cl)c1 (relative stereo)", 4.51],
  ["O=C(O[C@H]1CCCC[C@@H]1OC(=O)c1cc(O)c(O)c(O)c1)c1cc(O)c(O)c(O)c1 (stereo in doubt)", 4.46],
  ["COc1cc(C(=O)NCCCCCNC(=O)c2ccc(O)c(OC)c2)ccc1O", 4.04],
  ["COc1cc(C(=O)NCCCNC(=O)c2ccc(O)c(OC)c2)ccc1O", 4.42],
  ["COc1cc(C(=O)O[C@@H]2CC[C@@H](OC(=O)c3ccc(O)c(OC)c3)C2)ccc1O (stereo in doubt)", 4.46]
]}

Incoming: Give pIC50 (U373 glioblastoma cells) of the following molecule: COc1cc(C(=O)O[C@@H]2CCC[C@H]2OC(=O)c2ccc(O)c(OC)c2)ccc1O (stereo in doubt)
Outgoing: 4.51

Incoming: Similarly, O=C(O[C@@H]1CCCC[C@H]1OC(=O)c1cc(O)c(O)c(O)c1)c1cc(O)c(O)c(O)c1 (stereo in doubt) ?
Outgoing: 4.43
